I'd appreciate it if you could supply solubility values for the items below.
Test summary: Solubility
Type: physicochemical
Assay conditions: read-out: solubility limit

`COc1ccc(C)cc1S(=O)(=O)Nc1ccc(Cl)c(N2CCCS2(=O)=O)c1` yielded solubility of ~25 µM

Measured solubility of `CC(=O)Nc1ccc(-c2csc(-c3c[nH]c4ccccc34)n2)cc1` : ~25 µM

====

Measurement target: rat UT-A1 (Rattus norvegicus)
Construct: expressed in transfected cells; host or cells: MDCK cells stably co-expressing rat UT-A1, human AQP1 and YFP-H148Q/V163S
Test summary: UT-A1 inhibition, fluorescence plate reader assay in MDCK cells expressing UT-A1, AQP1 and YFP-H148Q/V163S
Assay type: cell-based
Please provide measured IC50 for the entries that follow.
The reply should be a number in µM, with the unit left off.

Measured IC50, COc1ccc(OC)c(S(=O)(=O)Nc2ccc(Cl)c(N3CCCS3(=O)=O)c2)c1 [UTA1inh-F12] : 5

IC50 measured on CC(=O)Nc1ccc(-c2csc(-c3ccccc3)n2)cc1 [UTA1inh-E01] = 3

Query COc1ccc(N2CCCS2(=O)=O)cc1NS(=O)(=O)c1cc(C)ccc1OC [UTA1inh-F09] yields IC50 of 1

response.value for COc1ccc(C)cc1S(=O)(=O)Nc1cccc(N2CCCS2(=O)=O)c1 [UTA1inh-F01] (field: IC50) = 1

get_value(item= COc1cc(C)c(C)cc1S(=O)(=O)Nc1ccc(Cl)c(N2CCCS2(=O)=O)c1 [UTA1inh-F13] , readout=IC50) returns 8

====

Give IC50 for every item shown.
Measurement target: rat UT-B (Rattus norvegicus)
Construct: endogenous in cells; host or cells: rat erythrocytes (whole rat blood)
Sequence (P97689 1-384): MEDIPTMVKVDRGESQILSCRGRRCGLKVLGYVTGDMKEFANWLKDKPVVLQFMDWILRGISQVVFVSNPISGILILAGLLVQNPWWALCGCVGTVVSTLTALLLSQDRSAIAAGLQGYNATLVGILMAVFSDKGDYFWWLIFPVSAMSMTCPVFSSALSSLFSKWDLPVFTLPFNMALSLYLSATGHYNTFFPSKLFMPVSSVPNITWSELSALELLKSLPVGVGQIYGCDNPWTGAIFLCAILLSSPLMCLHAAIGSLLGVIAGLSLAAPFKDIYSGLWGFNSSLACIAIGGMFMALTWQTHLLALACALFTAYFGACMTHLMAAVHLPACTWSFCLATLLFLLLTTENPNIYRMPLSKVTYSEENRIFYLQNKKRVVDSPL
Test summary: UT-B inhibition, erythrocyte lysis assay
Type: cell-based
Assay conditions: rat erythrocytes
Method: As described (see, e.g., Levin et al. (2007) FASEB J. 21, 551-563), whole rat blood was diluted to a hematocrit of ˜1.5% in PBS containing 1.25 M acetamide and 5 mM glucose. Erythrocyte suspensions (100 μL) were added to 96-well round-bottom microplates and test compounds (1 μL) were added. […] Following vigorous mixing, erythrocyte lysis was quantified by absorbance at 710 nm. […] Percentage erythrocyte lysis was computed as: % lysis=100% (Aneg−Atest)/(Aneg−Apos), where A is absorbance at 710 nm. […]

The molecule listed as COc1ccc(F)cc1S(=O)(=O)Nc1cc(N2CCCS2(=O)=O)ccc1C [UTA1inh-F07] shows IC50 equal to > 75 µM

Reported IC50 for CC(=O)Nc1ccc(-c2csc(C)n2)cc1 [UTA1inh-E03] was > 50 µM

Reported IC50 of COc1ccc(F)cc1S(=O)(=O)Nc1cccc(N2CCCS2(=O)=O)c1 [UTA1inh-F04] : > 75 µM

# molecule Cc1ccc(C)c(S(=O)(=O)Nc2cccc(N3CCCS3(=O)=O)c2)c1 [UTA1inh-F02] ; its IC50 = > 75 µM

IC50 reading for COc1ccc(N2CCCS2(=O)=O)cc1NS(=O)(=O)c1cc(C)ccc1C [UTA1inh-F10] : > 75 µM

Value of IC50 reported for the molecule Cc1ccc(C)c(S(=O)(=O)Nc2cc(N3CCCS3(=O)=O)ccc2C)c1 [UTA1inh-F06] is > 75 µM
